// provenance: PubChem BioAssay

- METHOD DESCRIPTION: Primary imaging screen for DUSP6 inhibitors that restore phospho-Erk in transfected HeLa cells, chemical complementation (AID 609)
- PARTICULARS: HeLa MKP-3 transfected, phospho-Erk imaging KS statistic; measured here: nuclear c-Myc green intensity z-score; at 10 µM; cells stimulated with TPA for 15 min
Parameter threshold = -0.01. Response is fulfilled when z-score meets or exceeds it, else not fulfilled.

COMPOUND: Cc1cccc(N2CN=c3s/c(=C\c4ccncc4)c(=O)n3C2)c1
ANSWER LABEL: not fulfilled
--
COMPOUND: C[C@H]1C[C@H]2[C@@H]3CCC4=CC(=O)C=C[C@]4(C)[C@@]3(Cl)[C@@H](O)C[C@]2(C)[C@@]1(O)C(=O)CO
ANSWER LABEL: not fulfilled
--
COMPOUND: COc1ccc(C(=O)N2CCCC(c3ccccc3)C2)cc1 (stereo unspecified)
ANSWER LABEL: fulfilled
--
COMPOUND: COc1cc(C2C(C#N)=C(N)Oc3cc(N)ccc32)cc(OC)c1OC (stereo unspecified)
ANSWER LABEL: not fulfilled
--
COMPOUND: C=C(CC)C(=O)c1ccc(OCC(=O)O)c(Cl)c1Cl
ANSWER LABEL: not fulfilled
--
COMPOUND: CCCCCOc1ccc(Cl)cc1CN1CCOCC1
ANSWER LABEL: fulfilled
